Data provenance is ChEMBL document CHEMBL3507680.

Experiment: Human HepG2 cell viability assay in 384 well format
Format: toxicity, cell-based
Design: dose 125 nL, time 70.5 hour; concentration not given beside the values
Conditions: HepG2 cells, read-out: Inhibition
Result Type: cytotoxicity at 70.5 h (%)
Reply with just the number (in %).

These recorded examples may help you get a feel for the data.
| Compound | Unit Info | cytotoxicity at 70.5 h |
| --- | --- | --- |
| COCc1nc(C(=O)NS(=O)(=O)c2ccc(C)cc2C)cs1 | % | -11.1 |
| Cc1ccc(-c2nc(CN3CCc4nn(C)c(=O)cc4C3)co2)cc1 | % | -17 |

q: What does the data say about its cytotoxicity at 70.5 h? Entry: CSC(C)Cc1c(-c2ccccc2)ncn1CCCNc1cccnc1 (stereo unspecified)
a: -0.408

q: What does the data say about its cytotoxicity at 70.5 h? Entry: CNC[C@H]1CC[C@H](c2cc(CN(C)S(=O)(=O)N(C)C)n(C)n2)CC1
a: -3.44

q: What does the data say about its cytotoxicity at 70.5 h? Entry: COc1ccccc1CN1CC(OC)CN(C(=O)OCC(C)C)CC1=O (stereo unspecified)
a: -3.02

q: What does the data say about its cytotoxicity at 70.5 h? Entry: COCc1nc(CNC(=O)C(C)n2ccnc2C(C)C)no1 (stereo unspecified)
a: -9.39

q: What does the data say about its cytotoxicity at 70.5 h? Entry: O=C(c1ccco1)N1CCc2ncnc(NCc3ccccn3)c2CC1
a: -8.48

q: What does the data say about its cytotoxicity at 70.5 h? Entry: Cc1nc(S(=O)(=O)CCn2cccn2)n(C2CCCCC2)c1C
a: -4.93

q: What does the data say about its cytotoxicity at 70.5 h? Entry: Cc1csc(-c2cccc(NC(=O)NCC(C)(C)C(N)=O)c2)n1
a: -0.0997

q: What does the data say about its cytotoxicity at 70.5 h? Entry: O=C(CN(CC1CCC1)CC(F)(F)F)N1CCOCC1
a: -5.14

q: What does the data say about its cytotoxicity at 70.5 h? Entry: COc1c(CNC2CCOc3ccccc32)c(C)nn1C (stereo unspecified)
a: -4.19

---

cytotoxicity at 70.5 h values, listed per item
Experiment: Human HepG2 cell viability assay in 384 well format
Type: toxicity, cell-based
Set-up: dose 125 nL, time 70.5 hour; concentration not given beside the values
Settings: HepG2 cells, read-out: Inhibition
Reply with just the number (in %).

| Molecule | Unit Info | cytotoxicity at 70.5 h |
| --- | --- | --- |
| Cc1nc(C(=O)N(C)CC2CCCO2)nn1-c1ccccc1C(C)C (configuration not stated) | % | -5.46 |
| Cn1cccc1CN1CCC2(CCCN(C(=O)c3cnccn3)C2)C1 (configuration not stated) | % | 17 |
| c1cncc(CC2CN(c3cccnc3)CCO2)c1 (configuration not stated) | % | -6.99 |
| COc1cc(OC)cc(N2CCC(NCc3cc[nH]n3)C2)c1 (configuration not stated) | % | 40.6 |
| CCOC1Sc2nnc(C)n2N=C1c1ccc(Br)cc1 (configuration not stated) | % | -8.58 |
| CCCc1nnc(N2CCN(c3ccccc3F)CC2)o1 | % | 13.5 |
| O=C1CC2(CCNCC2)C(=O)N1c1cccc(F)c1 | % | -0.489 |
| COc1ccc(C(=O)NS(=O)(=O)c2cncc(Br)c2)c(OC)c1 | % | -7.26 |

q: What does the data say about its cytotoxicity at 70.5 h? Entry: COc1ccc2c(C)nc(N3C[C@@H](C)O[C@@H](C)C3)nc2c1
a: -16.1

q: What does the data say about its cytotoxicity at 70.5 h? Entry: CCn1c(=O)n(CC)c2cc(S(N)(=O)=O)ccc21
a: -2.33

q: What does the data say about its cytotoxicity at 70.5 h? Entry: CC(CNC(=O)Nc1ccc(F)cc1-n1cccc1)N1CCOCC1 (configuration not stated)
a: 4.4

q: What does the data say about its cytotoxicity at 70.5 h? Entry: Cc1cnc(CNC(=O)NC2CCCN(c3ccccc3F)C2)s1 (configuration not stated)
a: -3.86
